target: ERRα (Homo sapiens); construct: expressed in transfected cells; host or cells: CV-1 (African green monkey kidney) cells, transient transfection with CMX-GAL4-ERRα; assay: GAL4-ERRα co-transfection assay (luciferase reporter, CV-1 cells); assay type: cell-based; details: CV-1; average percent inhibition of ERRα activity relative to control 3-[4-(2,4-Bis-trifluoromethyl-benzyloxy)-3-methoxy-phenyl]-2-cyano-N-(5-trifluoromethyl-[1,3,4]thiadiazol-2-yl)-acrylamide
Sequence (P11474 174-423): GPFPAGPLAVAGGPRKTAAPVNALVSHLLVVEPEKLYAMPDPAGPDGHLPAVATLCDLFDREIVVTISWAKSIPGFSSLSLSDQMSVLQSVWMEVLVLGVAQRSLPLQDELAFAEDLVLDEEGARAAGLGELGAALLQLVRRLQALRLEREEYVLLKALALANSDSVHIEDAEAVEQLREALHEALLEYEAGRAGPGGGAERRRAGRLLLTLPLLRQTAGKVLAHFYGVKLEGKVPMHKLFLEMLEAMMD
valueKind: Emax

Field: example entries. Status: answers known.
[
  {
    "molecule": "COc1cc(C=C2SC(N3CCCC3c3ccccn3)=NC2=O)ccc1OCc1ccc(C(F)(F)F)cc1C(F)(F)F (centres unmarked)",
    "Emax": "100 to 120%"
  },
  {
    "molecule": "COc1cc(C=C2SC(N3CCOCC3)=NC2=O)ccc1OCc1ccc(C(F)(F)F)cc1C(F)(F)F",
    "Emax": "80 to 100%"
  },
  {
    "molecule": "COc1cc(C=C2SC(N3CCN(S(C)(=O)=O)CC3)=NC2=O)ccc1OCc1ccc(C(F)(F)F)cc1C(F)(F)F",
    "Emax": "100 to 120%"
  },
  {
    "molecule": "COc1cc(C=C2SC(N3CC(C)OC(C)C3)=NC2=O)ccc1OCc1ccc(C(F)(F)F)cc1C(F)(F)F (centres unmarked)",
    "Emax": "100 to 120%"
  },
  {
    "molecule": "COc1cc(C=C2SC(N3CCN(CC4CCN(C)CC4)CC3)=NC2=O)ccc1OCc1ccc(C(F)(F)F)cc1C(F)(F)F",
    "Emax": "80 to 100%"
  },
  {
    "molecule": "CCCCCN1CCN(C2=NC(=O)C(=Cc3ccc(OCc4ccc(C(F)(F)F)cc4C(F)(F)F)c(OC)c3)S2)CC1",
    "Emax": "80 to 100%"
  },
  {
    "molecule": "COc1cc(C=C2SC(N3CCN(C)CC3)=NC2=O)ccc1OCc1ccc(C(F)(F)F)cc1C(F)(F)F",
    "Emax": "100 to 120%"
  },
  {
    "molecule": "COc1cc(C=C2SC(N3CCCC(c4nc5cc(C)ccc5[nH]4)C3)=NC2=O)ccc1OCc1ccc(C(F)(F)F)cc1C(F)(F)F (centres unmarked)",
    "Emax": "80 to 100%"
  }
]

Given the entry `COc1cc(C=C2SC(N3CCNCC3)=NC2=O)ccc1OCc1ccc(C(F)(F)F)cc1C(F)(F)F` , report its measured Emax.
100 to 120%

Given the entry `COc1cc(C=C2SC(N3CCSCC3)=NC2=O)ccc1OCc1ccc(C(F)(F)F)cc1C(F)(F)F` , report its measured Emax.
100 to 120%

Given the entry `COc1cc(C=C2SC(N3CCN(Cc4ccc(Cl)cc4)CC3)=NC2=O)ccc1OCc1ccc(C(F)(F)F)cc1C(F)(F)F` , report its measured Emax.
60 to 80%
